target: human platelet GPIIb/IIIa (Homo sapiens, UniProt P05106+P08514); construct: the adsorbed GPIIb/IIIa was eluted with buffer A containing 2 mM GRGDSPK peptide; from tissue; assay: Inhibitory activity against binding between platelet GPIIb/IIIa and fibrinogen (solid phase receptor binding)
Sequence (P08514 32-887 limits assumed): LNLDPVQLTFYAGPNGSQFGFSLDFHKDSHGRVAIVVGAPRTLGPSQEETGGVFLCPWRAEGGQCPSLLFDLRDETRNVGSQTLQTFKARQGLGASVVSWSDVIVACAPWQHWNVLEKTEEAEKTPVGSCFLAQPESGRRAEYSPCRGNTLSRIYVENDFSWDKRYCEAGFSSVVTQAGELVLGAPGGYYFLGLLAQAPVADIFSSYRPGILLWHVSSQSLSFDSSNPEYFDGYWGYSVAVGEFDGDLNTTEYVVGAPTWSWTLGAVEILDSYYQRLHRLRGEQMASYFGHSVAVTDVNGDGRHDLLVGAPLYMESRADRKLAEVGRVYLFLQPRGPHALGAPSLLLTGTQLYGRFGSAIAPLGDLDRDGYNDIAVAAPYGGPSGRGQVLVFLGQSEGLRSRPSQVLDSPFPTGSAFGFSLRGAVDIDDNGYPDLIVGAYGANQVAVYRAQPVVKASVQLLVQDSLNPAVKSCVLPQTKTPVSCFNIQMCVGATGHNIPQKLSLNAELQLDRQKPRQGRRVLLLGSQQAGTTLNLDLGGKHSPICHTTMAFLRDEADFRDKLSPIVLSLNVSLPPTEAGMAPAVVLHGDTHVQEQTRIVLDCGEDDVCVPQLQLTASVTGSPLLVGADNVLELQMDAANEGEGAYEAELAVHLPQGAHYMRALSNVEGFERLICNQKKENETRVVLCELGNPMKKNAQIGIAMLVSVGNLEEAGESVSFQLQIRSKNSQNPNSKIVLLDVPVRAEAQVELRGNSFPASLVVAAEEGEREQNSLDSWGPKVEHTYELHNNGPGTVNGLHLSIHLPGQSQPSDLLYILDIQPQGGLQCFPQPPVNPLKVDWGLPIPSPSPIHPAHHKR
Sequence (P08514 891-1039 partner limits assumed): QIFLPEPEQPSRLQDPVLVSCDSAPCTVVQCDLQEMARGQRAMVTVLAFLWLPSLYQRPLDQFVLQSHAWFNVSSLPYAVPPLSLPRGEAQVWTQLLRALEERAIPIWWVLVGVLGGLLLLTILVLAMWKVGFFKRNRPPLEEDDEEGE
Sequence (P05106 27-788): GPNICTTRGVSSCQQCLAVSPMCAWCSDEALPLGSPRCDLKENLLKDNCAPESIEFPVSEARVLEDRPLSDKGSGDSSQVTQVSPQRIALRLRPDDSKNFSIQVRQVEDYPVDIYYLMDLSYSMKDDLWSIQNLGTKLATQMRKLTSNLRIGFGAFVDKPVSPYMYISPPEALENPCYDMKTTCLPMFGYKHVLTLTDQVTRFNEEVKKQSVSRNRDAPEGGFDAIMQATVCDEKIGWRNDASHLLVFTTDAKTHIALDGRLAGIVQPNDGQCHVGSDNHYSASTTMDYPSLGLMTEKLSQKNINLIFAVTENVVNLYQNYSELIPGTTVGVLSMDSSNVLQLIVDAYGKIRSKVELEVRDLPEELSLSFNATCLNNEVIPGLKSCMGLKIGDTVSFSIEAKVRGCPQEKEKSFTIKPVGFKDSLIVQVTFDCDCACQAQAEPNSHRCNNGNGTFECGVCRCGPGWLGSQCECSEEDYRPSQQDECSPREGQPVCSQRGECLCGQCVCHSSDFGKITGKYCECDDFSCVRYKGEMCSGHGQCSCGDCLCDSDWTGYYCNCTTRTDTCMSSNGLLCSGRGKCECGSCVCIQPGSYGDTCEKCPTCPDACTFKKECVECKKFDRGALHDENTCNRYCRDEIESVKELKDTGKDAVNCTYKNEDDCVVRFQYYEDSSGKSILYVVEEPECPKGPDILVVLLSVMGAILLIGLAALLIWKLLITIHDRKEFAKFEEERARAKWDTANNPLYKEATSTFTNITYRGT
Counter-ions that a name gives are not always drawn.
resultType: pIC50
Schema: pIC50 number; meaning minus log10 of the concentration expressed in molar units.

I have this compound here, O=C(O)COc1ccc(C(=O)CN2CCN(C3CCNCC3)CC2=O)cc1Cn1ccnc1 [Example 6, trifluoroacetate] , and I need its recorded pIC50. 7.92

---

biological target: human platelet GPIIb/IIIa (Homo sapiens, UniProt P05106+P08514); construct: the adsorbed GPIIb/IIIa was eluted with buffer A containing 2 mM GRGDSPK peptide; from tissue; assay: Inhibitory activity against binding between platelet GPIIb/IIIa and fibrinogen (solid phase receptor binding); conditions: purified human platelet GPIIb/IIIa, biotinylated human fibrinogen as ligand
Where a name gives a salt, the structure may show the parent alone.
resultType: IC50
Please state the value followed by its unit.

Which measured IC50 belongs to O=C(O)COc1ccc(C(=O)CN2C(=O)CN(C3CCNCC3)CC2=O)cc1Cn1ccnc1 [Example 8, trifluoroacetate] , tested on human platelet GPIIb/IIIa (Homo sapiens, UniProt P05106+P08514)? 190 nM

---

Biological target: human TXA2 synthetase (Homo sapiens)
Construct: purchased BIOMOL
Assay: Inhibitory activity against thromboxane A2 (TXA2) synthetase
Type: biochemical
Conditions: human TXA2 synthetase, PGH2 substrate, 25°C, TXB2 determined by enzyme immunoassay; read-out: IC50
Experimental: The inhibitory activity of the compound of the present invention against TXA2 synthetase was assayed according to a method established by Ri et al. (Nihon Yakuri Gakkaishi, 106, 31 (1995)). […] The supernatant was obtained as a sample for quantitative determination of TXB2. The amount of TXB2 was determined by means of Thromboxane B2 Enzyme Immunoassay Kit (Cayman Chemical). […]
Structures can show the parent of a compound that is named as a salt.
Reported IC50 by item:
Use nM as the unit, but write only the number.

Could you tell me which IC50 is on file for O=C(O)COc1ccc(C(CNC(=O)c2cc3c(s2)CCNC3)Oc2cccnc2)cc1 (centres unmarked) [Example 5, trifluoroacetate] ? 160

Form field: reported IC50 of O=C(O)COc1ccc(C(CNC(=O)c2cc3c(s2)CCNC3)Oc2cccnc2)cc1OCC(=O)O (centres unmarked) [Example 3, trifluoroacetate] 550

Suppose we examine the molecule CN(CC(Oc1cccnc1)c1ccc(OCC(=O)O)c(OCC(=O)O)c1)C(=O)c1cc2c(s1)CCNC2 (centres unmarked) [Example 4, trifluoroacetate] ; what IC50 value has been reported? 870

Look at this molecule and give its reported IC50. O=C(O)COc1ccc(C(=O)CNC(=O)c2cc3c(s2)CCNC3)cc1Cn1ccnc1 [Example 1, trifluoroacetate (TFA)] 360

---

Molecular target: human TXA2 synthetase (Homo sapiens, UniProt P24557)
Construct: purchased BIOMOL
Sequence (P24557 whole entry): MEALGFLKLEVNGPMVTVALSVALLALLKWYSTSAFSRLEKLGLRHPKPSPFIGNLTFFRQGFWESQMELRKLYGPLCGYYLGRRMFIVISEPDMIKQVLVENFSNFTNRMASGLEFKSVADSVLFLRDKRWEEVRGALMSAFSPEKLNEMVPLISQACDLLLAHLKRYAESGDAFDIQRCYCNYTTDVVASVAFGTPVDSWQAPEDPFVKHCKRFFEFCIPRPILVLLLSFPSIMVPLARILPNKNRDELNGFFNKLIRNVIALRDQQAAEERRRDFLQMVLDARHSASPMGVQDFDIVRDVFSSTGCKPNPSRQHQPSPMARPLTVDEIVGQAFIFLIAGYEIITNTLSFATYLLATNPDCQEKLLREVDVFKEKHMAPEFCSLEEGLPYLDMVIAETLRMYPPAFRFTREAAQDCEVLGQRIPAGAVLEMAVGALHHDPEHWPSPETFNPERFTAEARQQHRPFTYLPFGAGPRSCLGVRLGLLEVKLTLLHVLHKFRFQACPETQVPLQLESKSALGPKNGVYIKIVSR
Assay: Inhibitory activity against thromboxane A2 (TXA2) synthetase
Format: biochemical
Experimental: The inhibitory activity of the compound of the present invention against TXA2 synthetase was assayed according to a method established by Ri et al. (Nihon Yakuri Gakkaishi, 106, 31 (1995)). […] The supernatant was obtained as a sample for quantitative determination of TXB2. The amount of TXB2 was determined by means of Thromboxane B2 Enzyme Immunoassay Kit (Cayman Chemical). […]
Where a name gives a salt, the structure may show the parent alone.
resultType: pIC50
Please note pIC50 is a logarithmic value: minus log10 of concentration in mol/L. Answer with that number alone.

Requested read-out: pIC50. Entry: O=C(O)COc1ccc(C(=O)CN2CCN(C3CCNCC3)CC2=O)cc1Cn1ccnc1 [Example 6, trifluoroacetate] 6.24
